B1: library; a variant is named by its letters at X, in order (parent)
chain: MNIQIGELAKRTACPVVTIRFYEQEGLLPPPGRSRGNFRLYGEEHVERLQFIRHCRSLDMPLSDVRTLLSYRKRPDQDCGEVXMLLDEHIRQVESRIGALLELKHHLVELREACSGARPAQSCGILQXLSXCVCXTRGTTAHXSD

- Variants of: B1
- assay_method_text: sfGFP reporter fluorescence (15 h) (µM FITC); higher = higher leak
- stated_conditions: library round: Round 2; ligand: none
observed_property: sfGFP reporter fluorescence

>>> print(df.to_string())
                  mutation_name  test_result
 0  NIDDP P61N D64K K104V L107A       0.0923
 1                  TGADP V108L       0.0451
 2                        NHEDW       0.0563
 3                  NGAAF E112D       0.0594
 4                        NSAAP       0.0758
 5                        NGAPL       0.0797
 6                   TGDDA E25V       0.0619
 7            NMDAA K104R L107C         2.28
 8              TGDDP V82I L85K       0.0407
 9            NIDDP L107C G124A        0.942
10                        TGAYC       0.0543
11            TGDDP K104R E112F       0.0494
12                  NGDAY L110V       0.0649
13        NGDDP P61N D64T E112V        0.117
14            IGDDR K104V H106A       0.0522
15                        NGSPL        0.077

Cited source: the supplement of paper PMC12783771
